Target: human Y4 receptor (Homo sapiens, UniProt P50391)
Construct: expressed in transfected cells
Sequence (P50391 whole entry): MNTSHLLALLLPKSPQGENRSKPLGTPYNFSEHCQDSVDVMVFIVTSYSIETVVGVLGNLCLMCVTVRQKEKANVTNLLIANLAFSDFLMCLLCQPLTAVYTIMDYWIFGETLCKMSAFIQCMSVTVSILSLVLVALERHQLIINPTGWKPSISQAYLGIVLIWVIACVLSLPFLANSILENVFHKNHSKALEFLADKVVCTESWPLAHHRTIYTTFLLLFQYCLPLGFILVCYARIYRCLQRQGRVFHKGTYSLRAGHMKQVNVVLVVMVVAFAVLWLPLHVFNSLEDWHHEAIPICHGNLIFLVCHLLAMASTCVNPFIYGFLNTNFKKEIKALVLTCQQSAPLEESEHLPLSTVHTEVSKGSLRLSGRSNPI
Assay: NPY4 cAMP HTRF Agonist Assay (inhibitory cAMP assay, Gi activation by Y4 agonism)
Assay type: cell-based
Settings: human Y4 stable CHO clonal cells, forskolin + IBMX; read-out: NPY4 cAMP HTRF Agonist Assay EC50
MEASUREMENT_TYPE: pEC50
In plain terms, pEC50 is the concentration in mol/L turned into minus its base-10 logarithm.

Please review the entries below; each comes with its answer.
COMPOUND	STUDY_SYSTEM	pEC50
C[C@]1(N[C@@H]2CCCC[C@H]2Nc2ncc(-c3ccc(OC(F)(F)F)cc3)o2)CCCN(c2ccc([N+](=O)[O-])cc2)C1 [Example 96, bis-trifluoroacetate]	human Y4 receptor (Homo sapiens, UniProt P50391)	9.00
O=[N+]([O-])c1ccc(N2CCC[C@H](N[C@@H]3CCCC[C@H]3Nc3ncc(-c4ccccc4F)o3)C2)cc1	human Y4 receptor (Homo sapiens, UniProt P50391)	8.40

Lab note: next compound to report on.
What pEC50 value was documented for this compound, CC(C)(C)Oc1ccc(-c2cnc(N[C@@H]3CCCC[C@H]3N[C@H]3CCCN(c4ccc([N+](=O)[O-])cc4)C3)o2)cc1 ? 6.04

---

Target: human Y4 receptor (Homo sapiens, UniProt P50391)
Construct: expressed in transfected cells
Assay: NPY4 cAMP HTRF Agonist Assay (inhibitory cAMP assay, Gi activation by Y4 agonism)
Format: cell-based
Settings: human Y4 receptor, cAMP; read-out: hY4 CAMP EC50
MEASUREMENT_TYPE: EC50 (nM)
Report as a plain number; the unit nM is understood.

COMPOUND	REPORTED_MEASUREMENT
Cc1nnc(-c2ccc(N3CCCC(N[C@@H]4CCCC[C@H]4Nc4cc(-c5ccncc5)ccn4)C3)cc2)o1 (stereo partly shown)	5
Cc1nnc(-c2ccc(N3CCCC(N[C@@H]4CCCC[C@H]4Nc4cc(-c5ccc(Cl)cc5)ccn4)C3)cc2)o1 (stereo partly shown)	52
C[C@]1(N[C@@H]2CCCC[C@H]2Nc2cc(-c3cccc(C(N)=O)c3)ccn2)CCCN(c2ncc(C#N)cn2)C1	400
Cc1noc(-c2ccc(N3CCC[C@H](N[C@@H]4CCCC[C@H]4Nc4cc(-c5cccc(C(C)(C)O)c5)ccn4)C3)cc2)n1	23
FC(F)(F)Oc1cccc(-c2cnc(N[C@@H]3CCCC[C@H]3N[C@H]3CCCN(c4cnc(C(F)(F)F)nc4)C3)o2)c1	954
N#Cc1cnc(N2CCC[C@H](N[C@@H]3CCCC[C@H]3Nc3ncc(-c4cccc(C(N)=O)c4)o3)C2)cn1	25
Cc1nc(-c2ncc(N3CCC[C@H](N[C@@H]4CCCC[C@H]4Nc4cc(-c5ccc(F)cc5F)ccn4)C3)cn2)no1	9
NC(=O)c1cccc(-c2ccnc(N[C@@H]3CCCC[C@H]3N[C@H]3CCCN(c4ncc(C(F)(F)F)cn4)C3)c2)c1	22

Enter reported EC50 observed with human Y4 receptor (Homo sapiens, UniProt P50391) for COC(=O)Nc1cccc(-c2cnc(N[C@@H]3CCCC[C@H]3N[C@H]3CCCN(c4ccc5ncnn5c4)C3)o2)c1 4

Repeat for the following compound: Cc1noc(-c2ccc(N3CCC[C@H](N[C@@H]4CCCC[C@H]4Nc4ncc(-c5cccc(C(N)=O)c5)o4)C3)cc2)n1 1

Repeat for the following compound: NC(=O)c1cccc(-c2ccnc(N[C@@H]3CCCC[C@H]3N[C@H]3CCCN(c4ccc(OC(F)(F)F)cc4)C3)c2)c1 8

Repeat for the following compound: CNC(=O)Nc1cccc(-c2cnc(N[C@@H]3CCCC[C@H]3N[C@H]3CCCN(c4cnc(C(F)(F)F)nc4)C3)o2)c1 4

Repeat for the following compound: Cc1nnc(-c2ccc(N3CCC[C@H](N[C@@H]4CCCC[C@H]4Nc4cc(-c5cccc(C(N)=O)c5)ccn4)C3)cc2)o1 1

---

Target: human Y4 receptor (Homo sapiens, UniProt P50391)
Construct: expressed in transfected cells
Assay: NPY4 cAMP HTRF Agonist Assay (inhibitory cAMP assay, Gi activation by Y4 agonism)
Type: cell-based
Conditions: TABLE 3, R2 is Phenyl-NO2; read-out: hY4 CAMP EC50
Lab note: compare EC50 with 0.07 µM, writing 1 (yes) if less and 0 (no) if equal or more.

Illustrative cases are given below, each with its answer.
MOLECULE	STUDY_SYSTEM	CATEGORY
NC(=O)c1cccc(-c2ccnc(N[C@@H]3CCCC[C@H]3N[C@H]3C[C@@H]4C[C@H]3N(c3ccc([N+](=O)[O-])cc3)C4)c2)c1 [Example 294]	human Y4 receptor (Homo sapiens, UniProt P50391)	1 (yes)
O=[N+]([O-])c1ccc(N2CCC[C@H](N[C@@H]3CCCC[C@H]3NC3=NOC(c4ccccc4)C3)C2)cc1 (some centres unmarked) [Example 286]	human Y4 receptor (Homo sapiens, UniProt P50391)	0 (no)
N#Cc1ccc(-c2cnc(N[C@@H]3CCCC[C@H]3N[C@H]3CCCN(c4ccc([N+](=O)[O-])cc4)C3)o2)cc1 [Example 285]	human Y4 receptor (Homo sapiens, UniProt P50391)	1 (yes)
O=[N+]([O-])c1ccc(N2C[C@@H]3C[C@H](N[C@@H]4CCCC[C@H]4Nc4cc(Cl)ncn4)[C@H]2C3)cc1 [Example 295]	human Y4 receptor (Homo sapiens, UniProt P50391)	0 (no)
NC(=O)c1cccc(-c2cc(N[C@@H]3CCCC[C@H]3N[C@H]3C[C@@H]4C[C@H]3N(c3ccc([N+](=O)[O-])cc3)C4)ncn2)c1 [Example 297]	human Y4 receptor (Homo sapiens, UniProt P50391)	0 (no)

Hello, I'm reviewing records and need to know if EC50 of N#Cc1cccc(-c2ccnc(N[C@@H]3CCCC[C@H]3N[C@H]3C[C@@H]4C[C@H]3N(c3ccc([N+](=O)[O-])cc3)C4)c2)c1 [Example 293] is below 0.07 µM. Could you check? 0 (no)

Repeat for the following molecule: C[C@]1(N[C@@H]2CCCC[C@H]2Nc2ncc(-c3ccc(OC(F)(F)F)cc3)o2)CCCN(c2ccc([N+](=O)[O-])cc2)C1 [Example 287] 1 (yes)

---

Biological target: human Y4 receptor (Homo sapiens, UniProt P50391)
Construct: expressed in transfected cells
Experiment: NPY4 cAMP HTRF Agonist Assay (inhibitory cAMP assay, Gi activation by Y4 agonism)
Type: cell-based
Conditions: human Y4 receptor, cAMP; read-out: hY4 CAMP EC50
MEASUREMENT_TYPE: EC50 (nM)
Report as a plain number; the unit nM is understood.

Please review the entries below; each comes with its answer.
CHEMICAL_STRUCTURE	MEASUREMENT_TYPE	UNIT_LABEL	REPORTED_MEASUREMENT
N#Cc1cnc(N2C[C@@H]3C[C@H](N[C@@H]4CCCC[C@H]4Nc4cc(Br)ccn4)[C@H]2C3)nc1	EC50	nM	803
Cc1nc(-c2ccc(N3CCC[C@H](N[C@@H]4CCCC[C@H]4Nc4cc(-c5cccc(OC(F)(F)F)c5)ccn4)C3)cc2)no1	EC50	nM	123
CC(C)OC(=O)Nc1cccc(-c2cnc(N[C@@H]3CCCC[C@H]3N[C@H]3CCCN(c4cnc(C(F)(F)F)nc4)C3)o2)c1	EC50	nM	23
COC(=O)Nc1cccc(-c2cnc(N[C@@H]3CCCC[C@H]3N[C@H]3CCCN(c4cnc(-c5noc(C)n5)nc4)C3)o2)c1	EC50	nM	1
NC(=O)c1cccc(-c2cnc(N[C@@H]3CCCC[C@H]3N[C@H]3CCCN(c4cnc(C(F)(F)F)cn4)C3)o2)c1	EC50	nM	8

What EC50 value was documented for this compound, NC(=O)c1cccc(-c2ccnc(N[C@@H]3CCCC[C@H]3N[C@H]3CCCN(c4ccc(-c5ncon5)cc4)C3)c2)c1 ? 15

Repeat for the following compound: O=C(Nc1cccc(-c2cnc(N[C@@H]3CCCC[C@H]3N[C@H]3CCCN(c4ccc5ncnn5c4)C3)o2)c1)C1CC1 16

Repeat for the following compound: C[C@]1(N[C@@H]2CCCC[C@H]2Nc2ncc(-c3cccc(C(N)=O)c3)o2)CCCN(c2ccc(C(=N)NC(=O)C3CC3)nc2)C1 4

Repeat for the following compound: Fc1ccccc1-c1cnc(N[C@@H]2CCCC[C@H]2N[C@H]2CCCN(c3cnc(C(F)(F)F)nc3)C2)o1 161

Repeat for the following compound: CCOC(=O)Nc1cccc(-c2cnc(N[C@@H]3CCCC[C@H]3N[C@H]3CCCN(c4ccc(-c5noc(C)n5)cc4)C3)o2)c1 3

Repeat for the following compound: C[C@]1(N[C@@H]2CCCC[C@H]2Nc2ncc(-c3cccc(C(N)=O)c3)o2)CCCN(c2ccc(-c3noc(C4CC4)n3)nc2)C1 5

---

Molecular target: human Y4 receptor (Homo sapiens)
Construct: expressed in transfected cells
Test: NPY4 cAMP HTRF Agonist Assay (inhibitory cAMP assay, Gi activation by Y4 agonism)
Assay type: cell-based
Conditions: human Y4 stable CHO clonal cells, forskolin + IBMX; read-out: NPY4 cAMP HTRF Agonist Assay EC50
MEASUREMENT_TYPE: pEC50
In plain terms, pEC50 is the concentration in mol/L turned into minus its base-10 logarithm.

COMPOUND	pEC50
O=[N+]([O-])c1ccc(N2CCC[C@H](N[C@@H]3CCCC[C@H]3Nc3nccc(-c4cccc(OC(F)(F)F)c4)n3)C2)cc1	6.41
O=[N+]([O-])c1ccc(N2CCC[C@H](N[C@@H]3CCCC[C@H]3Nc3nc4ccccc4o3)C2)cc1	7.16
O=[N+]([O-])c1ccc(N2C[C@@H]3C[C@H](N[C@@H]4CCCC[C@H]4Nc4ncc(-c5ccccc5)o4)[C@H]2C3)cc1	8.22
Fc1cc(N2CCC[C@H](N[C@@H]3CCCC[C@H]3Nc3nccc(-c4ccccc4)n3)C2)ccc1C(F)(F)F [Example 74, bis-trifluoroacetate]	6.38
O=[N+]([O-])c1ccc(N2CCC[C@H](N[C@@H]3CCCC[C@H]3Nc3ncc(-c4cccc(OC(F)(F)F)c4)o3)C2)cc1	7.37

Lab note: next compound to report on.
Enter reported pEC50 observed with human Y4 receptor (Homo sapiens) for CCOC(=O)Nc1cccc(-c2cnc(N[C@@H]3CCCC[C@H]3N[C@H]3CCCN(c4ccc(C(F)(F)F)nc4)C3)o2)c1 9.40

Each recorded value in this set is attributed to patent US8815909B2.
